Attribution: patent US5932709A

Reported values of solubility at 24 h for individual entries
- Assay explanation: Water solubility in phosphate buffered saline (spectrophotometric assay)
- Format: physicochemical
- Test settings: aqueous buffer; water solubility; PBS pH 7.5, room temperature, 24 hr
Outcome measure: solubility at 24 h (µg/mL)

| Compound | Outcome measure | Display unit | Recorded value |
| --- | --- | --- | --- |
| CC[C@@]1(O)C(=O)OCc2c1cc1n(c2=O)Cc2cc3ccccc3nc2-1 [camptothecin, reference compound] | solubility at 24 h | µg/mL | 20 |
| CCCCCC(=O)O[C@]1(CC)C(=O)OCc2c1cc1n(c2=O)Cc2cc3ccccc3nc2-1 [HAR2, camptothecin 20-n-hexanoate] | solubility at 24 h | µg/mL | 2.9 |
| CC[C@@]1(O)C(=O)OCc2c1cc1n(c2=O)Cc2c-1nc1ccccc1c2CO[C@@H]1C=C[C@H](OC(C)=O)[C@@H](COC(C)=O)O1 | solubility at 24 h | µg/mL | 155 |

* * *

- Assay explanation: Murine P388 leukemia model in vivo
- Parameters: species or system mouse (B6D2F1)
- Test settings: mouse, in vivo, ip; i.p. daily×5
- Experimental: For the B16 melanoma model, the following procedure was used. B6D2F1 mice receive i.p. inocula of B16 murine melanoma brei prepared from B16 tumors growing s.c. in mice (day 0). […] If dosing information for agents is not available, the maximum tolerated dose (MTD) is determined in initial dose finding experiments in non-tumored mice. The mean survival times of all groups are calculated, and results are expressed as mean survival of treated mice/mean survival of control mice (T/C)×100%. […]

| Smi | MTD |
| --- | --- |
| CC[C@@]1(O)C(=O)OCc2c1cc1n(c2=O)Cc2c-1nc1ccccc1c2CO[C@@H]1C=C[C@H](O[C@H]2O[C@H](CO)[C@@H](O)[C@H](O)[C@H]2O)[C@@H](CO)O1 | 100 mg/kg |

* * *

- Assay explanation: Solubility of HAR7 in various solvents and solvent systems
- Type: physicochemical
- Test settings: 2 m acetate buffer, aqueous buffer

| Smi | solubility (µg/mL) |
| --- | --- |
| CC[C@@]1(O)C(=O)OCc2c1cc1n(c2=O)Cc2c-1nc1ccccc1c2CO[C@@H]1C=C[C@H](O)[C@@H](CO)O1 | 29 |

* * *

- Assay explanation: Solubility of HAR7 in various solvents and solvent systems
- Type: physicochemical
- Test settings: 10% ethanol/water, organic solvent or mixture

| Smi | solubility / µg/mL |
| --- | --- |
| CC[C@@]1(O)C(=O)OCc2c1cc1n(c2=O)Cc2c-1nc1ccccc1c2CO[C@@H]1C=C[C@H](O)[C@@H](CO)O1 | 143 |
